- TARGET DESC: HLA-A*02:12
- ASSAY SUMMARY: IEDB peptide-MHC binding, purified MHC/direct/fluorescence; filed as Kd, often an IC50 or EC50 that approximates it; bounds were set here for any values at or beyond the usual limits of such assays
- ASSAY CONDITIONS: source organism: Brucella suis 1330
MEASURE NAME: pKd
Answers are plain numbers, as −log10 of the molar value.

Input: Please report the recorded pKd for YVDIIGLSV .
Output: 8.30

* * *

- TARGET DESC: HLA-B*08:01
- ASSAY SUMMARY: IEDB peptide-MHC binding, purified MHC/competitive/radioactivity; filed as Kd, often an IC50 or EC50 that approximates it; bounds were set here for any values at or beyond the usual limits of such assays
- ASSAY CONDITIONS: source organism: Dengue virus 4 Philippines/H241/1956
Assign Kd to each entry below.
Give bare numbers, in nM.

LLMRTTWAF ... 54.7

Moving on to another sequence below.
Input: // Kd lookup, key: LQRKHGGSL
Output: 57.4
